Organism: Rattus norvegicus
Assay: Open TG-GATES - Regimen: Daily Repeat
Assay type: toxicity, organism-based, Sprague-Dawley
Set-up: regimen Daily Repeat, gender Male, age 6 weeks
Conditions: in vivo, po, 100 mg/kg, […], tissue Plasma, route gavage, dose level Low, time 14 day
Measured property: K (meq/L)
Please state the figure in meq/L; there is no need to write the unit.

Would you please look over these solved cases?
CC(=O)[C@@]1(O)CC[C@H]2[C@@H]3C=C(Cl)C4=CC(=O)CC[C@]4(C)[C@H]3CC[C@@]21C; 4.2
CCCCNC(=O)NS(=O)(=O)c1ccc(C)cc1 [TOLBUTAMIDE]; 3.8
CC(S)C(=O)NCC(=O)O (centres undefined); 4.3

# next molecule below
The molecule O=C(O)c1ccccc1Nc1ccccc1 showed K equal to 4.2

Data provenance: ChEMBL document CHEMBL3885861
